Assignment: determine reported T/C for the given compounds.
# Tested on: L1210 leukemia ip in BDF1 mice, survival T/C
# test_summary: NCI In Vivo Anticancer Drug Screen. Data for tumor model L1210 Leukemia (intraperitoneal) in B6D2F1 (BDF1) mice
# experimental_setup: endpoint: mean survival time; dose: 100.0 mg/kg/injection; schedule: Q01DX009 (ip); vehicle: saline sonified; higher = longer survival
Inconclusive results and toxic doses are left out.

Enquiry: Entry Cc1cc(Cl)c(C)cc1Cl : reported T/C = ?
Return: 107 % of control

Enquiry: Entry C=CCC1(CC)C(=O)NC(=O)NC1=O : reported T/C = ?
Return: 110 % of control

Enquiry: Entry O=Cc1ccc(C=O)c(Cl)c1 : reported T/C = ?
Return: 100 % of control

Enquiry: Entry O=C(O)C1C(C(=O)O)C2(Cl)C(Cl)=C(Cl)C1(Cl)C2(Cl)Cl.[Fe] (centres undefined) : reported T/C = ?
Return: 93 % of control
